experiment: Chemical stability in phosphate buffer pH 7.4; settings: 72h
Listing of recorded Degradation (%) 72h by entry.
Entry rule: numbers only, all in %.

Examples with answers:
>>> recorded_measurement("CCCCNC(=O)c1cc([N+](=O)[O-])cc(C(F)(F)F)c1 [Compound 8a]")
0
>>> recorded_measurement("CCCCCCCCNC(=O)c1cc([N+](=O)[O-])cc(C(F)(F)F)c1 [Compound 8c]")
0
>>> recorded_measurement("CCCCNC(=O)c1ccc([N+](=O)[O-])cc1 [Compound 6a, N-butyl-4-nitrobenzamide]")
0
>>> recorded_measurement("CCCCCCCCCCCCOC(=O)c1ccccc1 [Compound 1e, Dodecyl benzoate]")
0
>>> recorded_measurement("CCCCOC(=O)c1ccccc1 [Compound 1a, Butyl benzoate]")
0

Now consider the entry below.
Ask | # return recorded Degradation (%) 72h for input CCCCCCCCCCCCOC(=O)c1cc([N+](=O)[O-])cc(C(F)(F)F)c1 [Compound 4e]
Reply | 3

###

test system: Mycobacterium smegmatis homogenate; assay: Stability in Mycobacterium smegmatis homogenate (enzymatic hydrolysis); details: Mycobacterium smegmatis homogenate, 37°C; 24h
Reported Degradation (%) 24h values for the following molecules.
Hi! Could you send only the number? It should be in %, unit omitted.

>>> recorded_measurement("CCCCCCCCCCCCCCOC(=O)c1cc([N+](=O)[O-])cc([N+](=O)[O-])c1 [Compound 3f]")
3
>>> recorded_measurement("CCCCCCCCNC(=O)c1ccc([N+](=O)[O-])cc1 [Compound 6c, N-octyl-4-nitrobenzamide]")
3
>>> recorded_measurement("CCCCCCNC(=O)c1ccc([N+](=O)[O-])cc1 [Compound 6b, N-hexyl-4-nitrobenzamide]")
17
>>> recorded_measurement("CCCCCCCCCCCCCCNC(=O)c1cc([N+](=O)[O-])cc([N+](=O)[O-])c1 [Compound 7f, N-tetradecyl-3.5-dinitrobenzamide]")
1

Ask | Give me measured Degradation (%) 24h, please, for this molecule: CCCCCCCCCCCCOC(=O)c1cc([N+](=O)[O-])cc(C(F)(F)F)c1 [Compound 4e]
Reply | 3

###

test system: human monocytic cell line THP-1 (ATCC56 TIB202); test: Cytotoxicity assay in THP-1 cells; format: cell-based; details: toxicity/activity index: ratio LC50 (THP-1) / MIC (M. tuberculosis H37Rv)
Note to self: values exactly at 100 are 1. So T/A at or above 100 is 1, below is 0.

>>> category("CCCCCCCCCCCCCCNC(=O)c1cc([N+](=O)[O-])cc([N+](=O)[O-])c1 [Compound 7f, N-tetradecyl-3.5-dinitrobenzamide]")
1
>>> category("CCCCCCCCCCNC(=O)c1cc([N+](=O)[O-])cc(C(F)(F)F)c1")
1
>>> category("CCCCCCOC(=O)c1cc([N+](=O)[O-])cc(C(F)(F)F)c1")
0
>>> category("CCCCNC(=O)c1cc([N+](=O)[O-])cc([N+](=O)[O-])c1 [Compound 7a, N-butyl-3.5-dinitrobenzamide]")
0
>>> category("CCCCCCCCNC(=O)c1cc([N+](=O)[O-])cc(C(F)(F)F)c1")
1

Ask | Has CCCCCCCCCCCCNC(=O)c1cc([N+](=O)[O-])cc(C(F)(F)F)c1 a recorded T/A greater than or equal to 100?
Reply | 1

Ask | Form field: T/A at least 100? Entry: CCCCCCCCNC(=O)c1ccccc1 [Compound 5c, N-octyl-benzamide]
Reply | 0
